target-entity: Thrombin (Homo sapiens, UniProt P00734)
Construct: Thrombin; 0.2 μM in 50% glycerol (7.34 μg/mL)
procedure-text: Dose response assay for protease inhibitors: thrombin
Assay type: biochemical
assay-conditions: ratio versus Factor XIa
quantity: Ratio: Thrombin/FXIa

# annotated cases, reported Ratio: Thrombin/FXIa shown
CC[C@@H](NC(=O)N1C(=O)[C@H](Cc2ccnc(N)c2)[C@H]1C(=O)N(C)c1cccc(OC)c1)C1CCCCC1 :: G (“G” indicates 1-100)
CC[C@@H](NC(=O)N1C(=O)[C@H](Cc2ccnc(N)c2)[C@H]1C(=O)N(C)c1ncccn1)C1CCCCC1 :: I (“I” indicates >500)
CC[C@@H](NC(=O)N1C(=O)[C@H](Cc2ccnc(N)c2)[C@H]1C(=O)N(C)c1ccnc(C)c1)c1cccc(Cl)c1 :: G (“G” indicates 1-100)
CN(C(=O)[C@@H]1[C@@H](Cc2ccnc(N)c2)C(=O)N1C(=O)N[C@@H](C1CCCCC1)C(F)(F)F)c1cncnc1 :: G (“G” indicates 1-100)

For the next question, use this compound.
Task: Fill in the recorded Ratio: Thrombin/FXIa for this compound, with Thrombin (Homo sapiens, UniProt P00734) as test system: CCC[C@@H](NC(=O)N1C(=O)[C@H](Cc2ccnc(N)c2)[C@H]1C(=O)N(C)c1ccncc1)c1ccccc1
Result: I (“I” indicates >500)

----------
procedure-text: Caco-2 cell permeability assay (A-B and B-A)
Format: in vitro ADME
assay-conditions: human, B-A direction
The entries below come with measured Papp B→A at 40 min, 10 μM values attached.

CC[C@@H](NC(=O)N1C(=O)[C@H](Cc2ccnc(N)c2)[C@H]1C(=O)N(C)c1ccccc1)C1CC1 :: > 50 ×10⁻⁶ cm/s

Task: What measured Papp B→A at 40 min, 10 μM goes with CN(C(=O)[C@@H]1[C@@H](Cc2ccnc(N)c2)C(=O)N1C(=O)N[C@@H](C1CCCCC1)C1CC1)c1ccccc1 ?
Result: 11 to 30 ×10⁻⁶ cm/s

Task: Then this molecule: CCC[C@@H](NC(=O)N1C(=O)[C@H](Cc2ccnc(N)c2)[C@H]1C(=O)N(C)c1ccncc1)c1ccccc1
Result: 31 to 50 ×10⁻⁶ cm/s

----------
procedure-text: Aqueous solubility in PBS pH 7.4
Format: physicochemical
assay-conditions: phosphate buffered saline, aqueous buffer, kinetic from dmso stock, PBS pH 7.4, room temperature
quantity: solubility at 24 h

# annotated cases, reported solubility at 24 h shown
CN(C(=O)[C@@H]1[C@@H](Cc2ccnc(N)c2)C(=O)N1C(=O)NC(c1ccccc1)c1ccccc1)c1ccncc1 :: > 100 µM
CN(C(=O)[C@@H]1[C@@H](Cc2ccnc(N)c2)C(=O)N1C(=O)N[C@@H](C1CCCCC1)C(F)(F)F)c1ncccn1 :: > 100 µM
CCN(C(=O)[C@@H]1[C@@H](Cc2ccnc(N)c2)C(=O)N1C(=O)N[C@@H](C1CCCCC1)C(F)(F)F)c1ccccc1 :: 10 to 100 µM
CC[C@@H](NC(=O)N1C(=O)[C@H](Cc2ccnc(N)c2)[C@H]1C(=O)N(C)c1ccncc1)C1CCCCC1 :: > 100 µM

Task: What measured solubility at 24 h goes with CN(C(=O)[C@@H]1[C@@H](Cc2ccnc(N)c2)C(=O)N1C(=O)N[C@@H](C1CCCCC1)C(F)(F)F)c1cccnc1 ?
Result: > 100 µM
